- Test system: SF-268
- method-notes: NCI tumour cell line growth inhibition, 48 h
Calls of active or inactive are those of the source. Rule as the data show it: active = GI50 up to about 1.1 µM and inactive = higher.
Respond only with the outcome that fits, drawn from active, inactive

INPUT: Please share the test call associated with C=C(Br)C(C)(Br)CCC(Br)C(C)(C)Br (stereo unspecified) .
OUTPUT: inactive

INPUT: Per the records of this test, what outcome belongs to COc1ccc(/C=N/n2c(C)n[nH]c2=O)cc1 ?
OUTPUT: inactive

INPUT: I'd appreciate the recorded outcome for CC1(C(=O)O)CCC[C@@]2(C)C1CC[C@@]1(C)c3cocc3CCC21 (stereo partly specified) from this test.
OUTPUT: inactive

INPUT: # lookup: test call for O=C(O)CC(Nc1ccccc1)C(=O)O (stereo unspecified)
OUTPUT: inactive

INPUT: What outcome does the record of this test show for COc1ccc(C2=Nc3cc(C)c(C)cc3NC(c3ccccc3)C2)cc1 (stereo unspecified) ?
OUTPUT: inactive

INPUT: Which outcome did this test record for the compound C=CC1(CCC(Br)C(C)(C)Cl)CO1 (stereo unspecified) ?
OUTPUT: inactive

INPUT: Look up the recorded call for O=c1c2cccnc2[nH]c2ccc3[nH]ncc3c12 in this test.
OUTPUT: inactive

INPUT: Would you mind telling me which call this test gave CCCCC/C=C1\CC(CO)(COC(=O)CC(C(C)C)C(C)C)OC1=O (stereo unspecified) ?
OUTPUT: inactive

INPUT: # lookup: test call for O=C(O)c1c2c(cc3c1CC1(Cc4ccccc4C1)C3)CCC2
OUTPUT: inactive

INPUT: Could you check what this test reported for CCOC(=O)Oc1cc2c(c(OC)c1OC)-c1ccc(SC)c(=O)cc1C(NC(=O)C(F)(F)F)CC2 (stereo unspecified) ?
OUTPUT: active

INPUT: How was CC(=O)OC1COC(N2C(=O)/C(=N\NC(N)=S)c3cc(Br)ccc32)C(OC(C)=O)C1OC(C)=O (stereo unspecified) classified in this test?
OUTPUT: inactive
